# Target Or Test System: PI3Kα (p110α/p85α) (Homo sapiens (Human), UniProt P42336)
# Assay Info: Lipid kinase selectivity panel (Reaction Biology)
# Assay type: biochemical
# Measurement Context: 1 μM compound, single dose duplicates, 10 μM ATP; read-out: Percent inhibition relative to DMSO control, PI3Kα (p110α/p85α)
Parameter Measured: inhibition at 1 µM (%)
# output: bare number, implied unit %

// below: answered molecules
{"Molecule": "COC(=O)Nc1cc(-c2cc(-c3cccnc3C(F)(F)F)[nH]c(=O)c2)c(C)cn1", "Parameter Measured": "inhibition at 1 µM", "Measure Unit": "%", "Experimental Result": 20}
{"Molecule": "Cc1cnc(NC(=O)OC2CC3(CNC3)C2)cc1-c1cc(N2CCCC[C@@H]2C(F)(F)F)[nH]c(=O)c1", "Parameter Measured": "inhibition at 1 µM", "Measure Unit": "%", "Experimental Result": -31}
{"Molecule": "COC(=O)Nc1cc(-c2cc(N3CCCC[C@@H]3C(F)(F)F)[nH]c(=O)c2)c(CF)cn1", "Parameter Measured": "inhibition at 1 µM", "Measure Unit": "%", "Experimental Result": -5}
{"Molecule": "COC(=O)Nc1ncc(C)c(-c2cc(-c3cccnc3C(F)(F)F)[nH]c(=O)c2)n1", "Parameter Measured": "inhibition at 1 µM", "Measure Unit": "%", "Experimental Result": -2}
{"Molecule": "Cc1cnc(NC(=O)C2CC2)cc1-c1cc(N2CCCC[C@@H]2C(F)(F)F)[nH]c(=O)c1", "Parameter Measured": "inhibition at 1 µM", "Measure Unit": "%", "Experimental Result": -15}

// moving on: another record for inhibition at 1 µM
Recorded inhibition at 1 µM for "Cc1cnc(NC(=O)CCN(C)C)cc1-c1cc(N2CCCC[C@@H]2C(F)(F)F)[nH]c(=O)c1" , please? 4

* * *

System: UniProt Q8NEB9 | Read-out: IC50
Sequence (Q8NEB9 other isoform, or with tags, fused parts or gaps): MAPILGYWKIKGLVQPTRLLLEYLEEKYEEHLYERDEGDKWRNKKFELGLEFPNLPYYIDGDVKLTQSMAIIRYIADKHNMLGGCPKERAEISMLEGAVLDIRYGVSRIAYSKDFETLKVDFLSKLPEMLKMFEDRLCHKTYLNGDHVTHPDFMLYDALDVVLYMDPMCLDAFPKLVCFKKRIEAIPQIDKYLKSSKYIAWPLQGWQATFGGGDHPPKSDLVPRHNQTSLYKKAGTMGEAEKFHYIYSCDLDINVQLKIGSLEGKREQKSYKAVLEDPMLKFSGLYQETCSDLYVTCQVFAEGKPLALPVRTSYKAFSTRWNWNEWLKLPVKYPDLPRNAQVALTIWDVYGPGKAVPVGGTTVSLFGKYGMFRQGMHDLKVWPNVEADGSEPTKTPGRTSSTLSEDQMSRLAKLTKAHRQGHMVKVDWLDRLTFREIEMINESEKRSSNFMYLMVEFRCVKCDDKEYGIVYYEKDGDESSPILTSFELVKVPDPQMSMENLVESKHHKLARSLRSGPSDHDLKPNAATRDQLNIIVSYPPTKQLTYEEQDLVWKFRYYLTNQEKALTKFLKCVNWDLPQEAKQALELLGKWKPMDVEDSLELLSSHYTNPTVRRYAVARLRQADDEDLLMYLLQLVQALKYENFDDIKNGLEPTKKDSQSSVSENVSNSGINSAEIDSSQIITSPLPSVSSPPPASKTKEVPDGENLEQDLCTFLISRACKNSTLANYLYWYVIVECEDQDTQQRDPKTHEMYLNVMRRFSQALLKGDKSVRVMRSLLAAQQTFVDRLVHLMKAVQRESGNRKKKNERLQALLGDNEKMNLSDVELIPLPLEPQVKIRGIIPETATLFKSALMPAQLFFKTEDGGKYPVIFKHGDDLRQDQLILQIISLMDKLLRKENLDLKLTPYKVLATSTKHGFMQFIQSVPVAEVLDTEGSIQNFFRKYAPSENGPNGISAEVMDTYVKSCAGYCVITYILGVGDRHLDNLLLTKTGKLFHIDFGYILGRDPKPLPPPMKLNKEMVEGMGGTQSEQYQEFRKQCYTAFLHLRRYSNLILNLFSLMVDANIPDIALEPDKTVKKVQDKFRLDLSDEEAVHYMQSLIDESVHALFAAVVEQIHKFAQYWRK

// below: answered molecules
{"Structure Notation": "COC(=O)Nc1cc(-c2cc(N3CCN(C(=O)CCN(C)C)C[C@@H]3C(F)(F)F)[nH]c(=O)c2)c(C)cn1", "IC50": "1000 to 10000 nM"}
{"Structure Notation": "Cc1cnc(NC(=O)OC2CC3(CNC3)C2)cc1-c1cc(N2CCCC[C@@H]2C(F)(F)F)[nH]c(=O)c1", "IC50": "100 to 500 nM"}
{"Structure Notation": "CNCCC(=O)N1CCN(c2cc(-c3cc(NC(=O)OC)ncc3C)cc(=O)[nH]2)[C@@H](C)C1", "IC50": "1000 to 10000 nM"}

Recorded IC50 for "Cc1cnc(Nc2cnn(C)n2)cc1-c1cc(N2CCCC[C@@H]2C(F)(F)F)[nH]c(=O)c1" , please? 100 to 500 nM

Recorded IC50 for "COC(=O)Nc1cc(-c2cc(-c3ccncc3C(F)(F)F)[nH]c(=O)c2)c(C)cn1" , please? 100 to 500 nM

Recorded IC50 for "Cc1cnc(NC(=O)C2CC2)cc1-c1cc(N2CCN(S(=O)(=O)C3CC3)C[C@@H]2C)[nH]c(=O)c1" , please? ≤ 100 nM

Recorded IC50 for "COC(=O)Nc1cc(-c2cc(N3CCCC[C@@H]3C(F)(F)F)[nH]c(=O)c2)c(CF)cn1" , please? 100 to 500 nM

* * *

# Target Or Test System: PI3K (p110α (E542K)/p85α) (Homo sapiens (Human), UniProt P42336, E542K)
# Sequence (P42336 whole entry E542K): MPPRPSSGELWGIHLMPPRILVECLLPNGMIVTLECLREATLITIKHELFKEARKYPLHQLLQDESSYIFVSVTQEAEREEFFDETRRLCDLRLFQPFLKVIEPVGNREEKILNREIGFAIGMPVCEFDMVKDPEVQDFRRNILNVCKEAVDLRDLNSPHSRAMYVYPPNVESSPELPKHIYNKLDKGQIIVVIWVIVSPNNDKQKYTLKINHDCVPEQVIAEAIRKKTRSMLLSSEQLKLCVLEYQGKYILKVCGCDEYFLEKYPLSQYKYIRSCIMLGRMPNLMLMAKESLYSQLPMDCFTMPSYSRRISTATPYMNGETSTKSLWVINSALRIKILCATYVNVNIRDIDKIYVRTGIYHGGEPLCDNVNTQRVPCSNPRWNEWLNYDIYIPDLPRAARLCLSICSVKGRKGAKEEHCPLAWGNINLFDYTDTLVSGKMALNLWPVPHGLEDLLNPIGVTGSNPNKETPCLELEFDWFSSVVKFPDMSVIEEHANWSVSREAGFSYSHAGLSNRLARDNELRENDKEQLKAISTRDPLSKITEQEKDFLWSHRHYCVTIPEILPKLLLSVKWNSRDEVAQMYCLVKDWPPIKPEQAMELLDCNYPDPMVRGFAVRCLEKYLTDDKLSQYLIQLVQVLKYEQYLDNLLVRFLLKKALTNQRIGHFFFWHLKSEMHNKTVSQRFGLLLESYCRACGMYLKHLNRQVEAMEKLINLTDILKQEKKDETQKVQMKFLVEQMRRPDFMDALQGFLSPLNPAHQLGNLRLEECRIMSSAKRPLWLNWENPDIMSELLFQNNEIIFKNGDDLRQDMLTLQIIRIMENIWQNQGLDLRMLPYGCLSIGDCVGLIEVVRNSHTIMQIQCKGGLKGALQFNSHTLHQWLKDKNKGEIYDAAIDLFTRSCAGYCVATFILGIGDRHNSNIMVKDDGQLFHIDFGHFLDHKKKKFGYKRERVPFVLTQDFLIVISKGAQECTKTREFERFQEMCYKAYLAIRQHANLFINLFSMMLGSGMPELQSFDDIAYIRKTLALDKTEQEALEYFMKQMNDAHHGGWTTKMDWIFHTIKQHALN
# Sequence (P27986 whole entry partner): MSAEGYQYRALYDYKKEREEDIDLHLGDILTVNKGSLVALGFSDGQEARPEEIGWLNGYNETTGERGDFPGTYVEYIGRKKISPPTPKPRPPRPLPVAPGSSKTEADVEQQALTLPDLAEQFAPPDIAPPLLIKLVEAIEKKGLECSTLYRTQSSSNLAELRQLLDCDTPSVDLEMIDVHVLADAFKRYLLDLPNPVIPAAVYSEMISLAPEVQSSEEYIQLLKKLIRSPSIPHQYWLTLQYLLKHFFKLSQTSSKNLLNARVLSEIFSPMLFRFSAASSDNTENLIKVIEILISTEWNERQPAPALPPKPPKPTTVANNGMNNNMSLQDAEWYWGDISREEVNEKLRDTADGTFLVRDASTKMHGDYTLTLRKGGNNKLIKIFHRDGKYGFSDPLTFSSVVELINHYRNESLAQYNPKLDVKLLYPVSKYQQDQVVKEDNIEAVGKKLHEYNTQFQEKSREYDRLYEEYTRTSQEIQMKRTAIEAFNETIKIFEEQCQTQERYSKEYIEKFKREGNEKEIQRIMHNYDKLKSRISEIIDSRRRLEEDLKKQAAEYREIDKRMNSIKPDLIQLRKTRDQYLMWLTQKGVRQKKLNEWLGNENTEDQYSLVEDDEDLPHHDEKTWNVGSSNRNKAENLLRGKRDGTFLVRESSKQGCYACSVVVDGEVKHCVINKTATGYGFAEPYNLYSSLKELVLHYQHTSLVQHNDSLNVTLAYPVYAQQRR
# Assay Info: Lipid kinase selectivity panel (Reaction Biology)
# Assay type: biochemical
# Measurement Context: 1 μM compound, single dose duplicates, 10 μM ATP; read-out: Percent inhibition relative to DMSO control, PI3K (p110α (E542K)/p85α)
Parameter Measured: inhibition at 1 µM (%)
# output: bare number, implied unit %

// below: answered molecules
{"Molecule": "COC(=O)Nc1ncc(C)c(-c2cc(-c3cccnc3C(F)(F)F)[nH]c(=O)c2)n1", "inhibition at 1 µM [%]": 4}
{"Molecule": "COC(=O)Nc1cc(-c2cc(-c3cccnc3C(F)(F)F)[nH]c(=O)c2)c(F)cn1", "inhibition at 1 µM [%]": 32}

Given the entry "Cc1nccc(Nc2cc(-c3cc(-c4cccnc4C(F)(F)F)[nH]c(=O)c3)c(C)cn2)n1" , what inhibition at 1 µM was observed with PI3K (p110α (E542K)/p85α) (Homo sapiens (Human), UniProt P42336, E542K)? 16

Given the entry "Cc1cnc(NC(=O)CC2CNC2)cc1-c1cc(N2CCCC[C@@H]2C(F)(F)F)[nH]c(=O)c1" , what inhibition at 1 µM was observed with PI3K (p110α (E542K)/p85α) (Homo sapiens (Human), UniProt P42336, E542K)? 1

* * *

Entries and their measured inhibition at 1 µM follow.
# Target Or Test System: PI3Kb (p110β/p85α) (Homo sapiens (Human))
# Sequence (P42338 whole entry, species assumed, one chain of several): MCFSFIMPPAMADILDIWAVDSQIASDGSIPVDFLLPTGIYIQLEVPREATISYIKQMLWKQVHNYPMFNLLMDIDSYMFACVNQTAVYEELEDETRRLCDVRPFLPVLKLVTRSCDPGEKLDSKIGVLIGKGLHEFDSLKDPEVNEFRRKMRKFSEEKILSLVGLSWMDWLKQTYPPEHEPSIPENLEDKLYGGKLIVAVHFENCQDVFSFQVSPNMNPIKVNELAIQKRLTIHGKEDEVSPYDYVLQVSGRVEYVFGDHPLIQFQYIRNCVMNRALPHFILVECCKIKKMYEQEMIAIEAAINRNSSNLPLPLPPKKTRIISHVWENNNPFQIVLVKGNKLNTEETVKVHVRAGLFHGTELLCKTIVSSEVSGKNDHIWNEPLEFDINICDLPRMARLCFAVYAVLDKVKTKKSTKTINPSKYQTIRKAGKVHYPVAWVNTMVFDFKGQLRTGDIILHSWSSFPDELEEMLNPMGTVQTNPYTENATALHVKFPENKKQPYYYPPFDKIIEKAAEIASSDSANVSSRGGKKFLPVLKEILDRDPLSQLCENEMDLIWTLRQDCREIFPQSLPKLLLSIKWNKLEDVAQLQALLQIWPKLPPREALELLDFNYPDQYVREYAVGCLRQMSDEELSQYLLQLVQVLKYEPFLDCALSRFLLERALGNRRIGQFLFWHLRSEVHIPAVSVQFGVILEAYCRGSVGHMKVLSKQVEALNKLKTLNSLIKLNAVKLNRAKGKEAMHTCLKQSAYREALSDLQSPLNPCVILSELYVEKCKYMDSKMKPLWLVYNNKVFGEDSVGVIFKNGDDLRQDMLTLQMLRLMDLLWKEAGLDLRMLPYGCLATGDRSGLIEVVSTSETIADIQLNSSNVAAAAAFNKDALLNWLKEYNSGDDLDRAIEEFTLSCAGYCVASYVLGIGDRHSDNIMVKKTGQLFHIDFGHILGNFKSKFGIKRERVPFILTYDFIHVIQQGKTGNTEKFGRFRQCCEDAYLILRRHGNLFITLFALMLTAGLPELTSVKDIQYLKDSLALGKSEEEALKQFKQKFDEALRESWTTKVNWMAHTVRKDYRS
# Assay Info: Lipid kinase selectivity panel (Reaction Biology)
# Assay type: biochemical
# Measurement Context: 1 μM compound, single dose duplicates, 10 μM ATP; read-out: Percent inhibition relative to DMSO control, PI3Kb (p110β/p85α)
# output: bare number, implied unit %

{"Molecule": "CNCC(=O)Nc1cc(-c2cc(N3CCCC[C@@H]3C(F)(F)F)[nH]c(=O)c2)c(C)cn1", "Measure Unit": "%", "inhibition at 1 µM": -9}
{"Molecule": "Cc1cnc(NC(=O)CCN2CCCC2)cc1-c1cc(N2CCCC[C@@H]2C(F)(F)F)[nH]c(=O)c1", "Measure Unit": "%", "inhibition at 1 µM": -10}
{"Molecule": "COC(=O)Nc1cc(-c2cc(-c3cccnc3C(F)(F)F)[nH]c(=O)c2)c(F)cn1", "Measure Unit": "%", "inhibition at 1 µM": -6}

// moving on: another record for inhibition at 1 µM
Recorded inhibition at 1 µM for Cc1cnc(NC(=O)CC2CNCC2(F)F)cc1-c1cc(N2CCCC[C@@H]2C(F)(F)F)[nH]c(=O)c1 (some centres unmarked) , please? -3

* * *

# Target Or Test System: PI3K (p110α (H1047R)/p85α) (Homo sapiens (Human), UniProt P42336, H1047R)
# Sequence (P42336 whole entry H1047R): as the sequence (P42336 whole entry E542K) above, with K542E, H1047R counted along it
# Sequence (P27986 whole entry partner): as the sequence (P27986 whole entry partner) above
# Assay Info: Lipid kinase selectivity panel (Reaction Biology)
# Format: biochemical
# Measurement Context: 1 μM compound, single dose duplicates, 10 μM ATP; read-out: Percent inhibition relative to DMSO control, PI3K (p110α (H1047R)/p85α)
Parameter Measured: inhibition at 1 µM (%)
# output: bare number, implied unit %

Recorded inhibition at 1 µM for "COC(=O)Nc1cc(-c2cc(N3CCCC[C@@H]3C(F)(F)F)[nH]c(=O)c2)c(C)cn1" , please? 10

Recorded inhibition at 1 µM for "COC(=O)Nc1cc(-c2cc(-c3cccnc3C(F)(F)F)[nH]c(=O)c2)c(C)cn1" , please? 8

Recorded inhibition at 1 µM for "COC(=O)Nc1cc(-c2cc(N3CCCC[C@@H]3C(F)(F)F)[nH]c(=O)c2)c(N)cn1" , please? 0

Recorded inhibition at 1 µM for "COC(=O)Nc1cc(-c2cc(N3CCCC[C@@H]3C(F)(F)F)[nH]c(=O)c2)c(CF)cn1" , please? 16

Recorded inhibition at 1 µM for "COC(=O)Nc1cc(-c2cc(-c3cccnc3C(F)(F)F)[nH]c(=O)c2)c(F)cn1" , please? 35

Recorded inhibition at 1 µM for "O=C(Nc1cc(-c2cc(N3CCCC[C@@H]3C(F)(F)F)[nH]c(=O)c2)c(Cl)cn1)C1CC1" , please? 14

Recorded inhibition at 1 µM for "Cc1cnc(NC(=O)OC2CC3(CNC3)C2)cc1-c1cc(N2CCCC[C@@H]2C(F)(F)F)[nH]c(=O)c1" , please? -3

Recorded inhibition at 1 µM for Cc1cnc(NC(=O)CC2CNCC2(F)F)cc1-c1cc(N2CCCC[C@@H]2C(F)(F)F)[nH]c(=O)c1 (stereo partly shown) , please? -4

Recorded inhibition at 1 µM for "Cc1cnc(NC(=O)C2CC2)cc1-c1cc(N2CCCC[C@@H]2C(F)(F)F)[nH]c(=O)c1" , please? 6

Recorded inhibition at 1 µM for "COC(=O)Nc1cc(-c2cc(N3CCCC[C@@H]3C)[nH]c(=O)c2)c(C)cn1" , please? -11

Recorded inhibition at 1 µM for "Cc1cnc(NC(=O)CCN2CCCC2)cc1-c1cc(N2CCCC[C@@H]2C(F)(F)F)[nH]c(=O)c1" , please? -8

Recorded inhibition at 1 µM for "Cc1nccc(Nc2cc(-c3cc(-c4cccnc4C(F)(F)F)[nH]c(=O)c3)c(C)cn2)n1" , please? 23

Recorded inhibition at 1 µM for "Cc1cnc(NC(=O)CCN(C)C)cc1-c1cc(N2CCCC[C@@H]2C(F)(F)F)[nH]c(=O)c1" , please? -7

Recorded inhibition at 1 µM for "COC(=O)Nc1cc(-c2cc(-c3cccnc3C(F)(F)F)[nH]c(=O)c2)c(N)cn1" , please? 10

Recorded inhibition at 1 µM for "Cc1cnc(NC(=O)CC2CNC2)cc1-c1cc(N2CCCC[C@@H]2C(F)(F)F)[nH]c(=O)c1" , please? -11

Recorded inhibition at 1 µM for "CNC(=O)Nc1cc(-c2cc(N3CCCC[C@@H]3C(F)(F)F)[nH]c(=O)c2)c(C)cn1" , please? -3
